Biological target: Human Polθ polymerase domain (aa1820-2590) (Homo sapiens, UniProt O75417)
Construct: Human Polθ polymerase domain (aa1820-2590) was expressed in E. coli; made in house; host or cells: E. coli
Assay: Polθ Polymerase Domain Kinact/KI Assay (PicoGreen)
Type: biochemical
Conditions: 0.8 nM Polθ, 100 nM DNA substrate, kobs vs [I] fit for 2-step covalent inhibitor
Endpoint label: Kinact/Kl (M⁻¹ s⁻¹)

Below are worked cases with known answers.
C=CC(=O)N1CCn2cc(CN3C[C@H]4CC(=O)N(c5cc(C(F)(F)F)cc(C)n5)[C@@H]4C(=O)N(C)c4cccc(Cl)c43)nc2[C@@H]1C (racemic) [Example 142b] = 630000
C=C(CN(C)C)C(=O)NC12CC(CN3C[C@H]4CC(=O)N(c5cc(C(F)(F)F)cc(C)n5)[C@@H]4C(=O)N(C)c4cccc(Cl)c43)(C1)C2 = 2.38e+06
C=CC(=O)N1CC2(CN(CCN3C[C@H]4CC(=O)N(c5cc(C(F)(F)F)cc(C)n5)[C@@H]4C(=O)N(C)c4cccc(F)c43)CCN2CC)C1 = 870000

a: C=CC(=O)N1CCN2CC(=O)N(CCN3C[C@H]4CC(=O)N(c5cc(C(F)(F)F)cc(C)n5)[C@@H]4C(=O)N(C)c4cccc(F)c43)C[C@H]2C1
b: C=CC(=O)N1CC(c2nc(CN3C[C@H]4CC(=O)N(c5cc(C(F)(F)F)cc(C)n5)[C@@H]4C(=O)N(C)c4cccc(F)c43)c[nH]2)C1
c: C=CC(=O)N1CC(N2CCC(CN3C[C@H]4CC(=O)N(c5cc(C(F)(F)F)cc(C)n5)[C@@H]4C(=O)N(C)c4cccc(F)c43)CC2)C1
Ask: Give the ascending ranking of the items by reported Kinact/Kl. API: response body holds the labels in the requested order.
Reply: a, b, c
(a: 110000 M⁻¹ s⁻¹, b: 610000 M⁻¹ s⁻¹, c: 1.81e+06 M⁻¹ s⁻¹)

----------
Biological target: Human Polθ polymerase domain (aa1820-2590) (Homo sapiens)
Construct: Human Polθ polymerase domain (aa1820-2590) was expressed in E. coli; made in house; host or cells: E. coli
Test: Polθ Polymerase Domain Kinact/KI Assay (PicoGreen)
Type: biochemical
Settings: 0.8 nM Polθ, 100 nM DNA substrate, kobs vs [I] fit for 2-step covalent inhibitor
Endpoint label: Kinact/Kl (M⁻¹ s⁻¹)

C=CC(=O)N1CC2(C1)C(C)N(CCN1C[C@H]3CC(=O)N(c4cc(C(F)(F)F)cc(C)n4)[C@@H]3C(=O)N(C)c3cccc(F)c31)C[C@H]1COCCN12 (single isomer, unassigned) = 410000

P: C=CC(=O)N1CCOC[C@H]1c1ccc(CN2C[C@H]3CC(=O)N(c4cc(C(F)(F)F)cc(C)n4)[C@@H]3C(=O)N(C)c3cccc(C)c32)cc1 (racemic) [Example 323a]
Q: Cc1cc(C(F)(F)F)cc(N2C(=O)C[C@@H]3CN(Cc4cn5c(n4)CN(C(=O)CCl)C(C)C5)c4c(Cl)cccc4N(C)C(=O)[C@H]32)n1 (mixture of isomers) [Example 73a]
R: Cc1cc(C(F)(F)F)cc(N2C(=O)C[C@@H]3CN(CC(F)CCCNC(=O)/C=C/CN(C)C)c4c(Cl)cccc4N(C)C(=O)[C@H]32)n1 (some centres unmarked)
Ask: Task for the reader: rank each entry by its Kinact/Kl, from the minimum upward. Enter labels, ranked according to the request.
Reply: Q, P, R
(Q: 39000 M⁻¹ s⁻¹, P: 640000 M⁻¹ s⁻¹, R: 1.42e+06 M⁻¹ s⁻¹)

a: C=C(CN(C)C)C(=O)N1CC2(CC(CN3C[C@H]4CC(=O)N(c5cc(C(F)(F)F)cc(C)n5)[C@@H]4C(=O)N(C)c4cccc(C)c43)C2)C1
b: C=CC(=O)N1CC[C@H]1c1nnc(CN2C[C@H]3CC(=O)N(c4cc(C(F)(F)F)cc(C)n4)[C@@H]3C(=O)N(C)c3cccc(C)c32)o1
Ask: I'm curious, which of these has a smaller Kinact/Kl number: a or b ? # answer = label of selected item
Reply: b
(b: 800000 M⁻¹ s⁻¹, a: 4.11e+06 M⁻¹ s⁻¹)

I: C=CC(=O)N1CCn2nc(CN3C[C@H]4CC(=O)N(c5cc(C(F)(F)F)cc(C)n5)[C@@H]4C(=O)N(C)c4cccc(C)c43)nc2C1
II: C=CC(=O)N1CC[C@@H](O)[C@H](N(C)CCN2C[C@H]3CC(=O)N(c4cc(C(F)(F)F)cc(C)n4)[C@@H]3C(=O)N(C)c3cccc(Cl)c32)C1 (relative stereo)
III: C=CC(=O)N1CC(N2CCN(CCN3C[C@H]4CC(=O)N(c5cc(C(F)(F)F)cc(C)n5)[C@@H]4C(=O)N(C)c4cc(F)cc(F)c43)CC2)C1
Ask: Falling order of Kinact/Kl, please. Answer format: list of labels, ordered as asked.
Reply: I, II, III
(I: 5.56e+06 M⁻¹ s⁻¹, II: 1.72e+06 M⁻¹ s⁻¹, III: 130000 M⁻¹ s⁻¹)

----------
Target: Human Polθ polymerase domain (aa1820-2590) (Homo sapiens, UniProt O75417)
Construct: Human Polθ polymerase domain (aa1820-2590) was expressed in E. coli; made in house; host or cells: E. coli
Sequence (O75417 1820-2590): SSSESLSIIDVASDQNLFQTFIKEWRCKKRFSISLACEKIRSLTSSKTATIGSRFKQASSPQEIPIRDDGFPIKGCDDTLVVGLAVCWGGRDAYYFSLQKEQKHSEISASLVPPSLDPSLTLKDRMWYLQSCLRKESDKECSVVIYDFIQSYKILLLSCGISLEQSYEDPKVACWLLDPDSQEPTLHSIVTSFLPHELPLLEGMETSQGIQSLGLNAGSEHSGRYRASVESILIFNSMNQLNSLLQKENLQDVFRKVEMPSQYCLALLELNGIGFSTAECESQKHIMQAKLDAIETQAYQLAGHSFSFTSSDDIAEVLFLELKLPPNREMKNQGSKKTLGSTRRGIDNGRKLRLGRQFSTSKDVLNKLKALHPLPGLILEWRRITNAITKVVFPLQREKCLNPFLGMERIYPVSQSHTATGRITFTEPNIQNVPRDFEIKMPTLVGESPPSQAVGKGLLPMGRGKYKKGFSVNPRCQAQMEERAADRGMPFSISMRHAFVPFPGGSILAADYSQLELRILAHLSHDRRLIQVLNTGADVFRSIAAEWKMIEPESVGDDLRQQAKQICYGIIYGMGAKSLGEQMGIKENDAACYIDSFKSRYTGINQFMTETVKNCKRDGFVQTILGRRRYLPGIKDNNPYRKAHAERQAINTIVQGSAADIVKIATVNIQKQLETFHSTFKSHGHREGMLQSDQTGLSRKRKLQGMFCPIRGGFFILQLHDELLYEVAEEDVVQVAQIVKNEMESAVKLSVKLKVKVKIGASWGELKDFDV
Assay: Polθ Polymerase Domain Kinact/KI Assay (PicoGreen)
Type: biochemical
Conditions: 0.8 nM Polθ, 100 nM DNA substrate, kobs vs [I] fit for 2-step covalent inhibitor
Endpoint label: Kinact/Kl (M⁻¹ s⁻¹)

A: C=CC(=O)N1CC(N2CCN(CCN3C[C@H]4CC(=O)N(c5cc(C(F)(F)F)cc(C)n5)[C@@H]4C(=O)N(C)c4cc(F)cc(Cl)c43)CC2)C1
B: C=C(CN(C)C)C(=O)N1CCn2cc(CN3C[C@H]4CC(=O)N(c5cc(C(F)(F)F)cc(C)n5)[C@@H]4C(=O)N(C)c4cccc(Cl)c43)nc2C1
C: C=CC(=O)N1CC(N2CC[C@H](CN3C[C@H]4CC(=O)N(c5cc(C(F)(F)F)cc(C)n5)[C@@H]4C(=O)N(C)c4cccc(Cl)c43)[C@H](C#N)C2)C1 (single isomer, unassigned) [Example 227a]
Ask: Please order the records by their reported Kinact/Kl, lowest number first. Give the labels in the order specified.
Reply: C, A, B
(C: 230000 M⁻¹ s⁻¹, A: 1.19e+06 M⁻¹ s⁻¹, B: 3.07e+06 M⁻¹ s⁻¹)

----------
Biological target: Human Polθ polymerase domain (aa1820-2590) (Homo sapiens)
Construct: Human Polθ polymerase domain (aa1820-2590) was expressed in E. coli; made in house; host or cells: E. coli
Test: Polθ Polymerase Domain Kinact/KI Assay (PicoGreen)
Type: biochemical
Settings: 0.8 nM Polθ, 100 nM DNA substrate, kobs vs [I] fit for 2-step covalent inhibitor
Endpoint label: Kinact/Kl (M⁻¹ s⁻¹)

C=CC(=O)N1CCC[C@@H]1c1nc(CN2C[C@H]3CC(=O)N(c4cc(C(F)(F)F)cc(C)n4)[C@@H]3C(=O)N(C)c3cccc(C)c32)no1 [Example 270] = 110000
C=CC(=O)N1CC2(C1)CN(C(=O)CN1C[C@H]3CC(=O)N(c4cc(C(F)(F)F)cc(C)n4)[C@@H]3C(=O)N(C)c3cccc(F)c31)C[C@@H](C)N2 [Example 52] = 190000
C=CC(=O)N1CC(N2CC[C@H](CCN3C[C@H]4CC(=O)N(c5cc(C(F)(F)F)cc(C)n5)[C@@H]4C(=O)N(C)c4cccc(Cl)c43)C2)C1 [Example 221] = 3.03e+06
C=CC(=O)N1CC(N2CCN(C(=O)CN3C[C@H]4CC(=O)N(c5cc(C(F)(F)F)cc(C)n5)[C@@H]4C(=O)N(C)c4cccc(F)c43)CC2)C1 [Example 51] = 210000
C=CC(=O)N1CCN2CCN(CCN3C[C@H]4CC(=O)N(c5cc(C(F)(F)F)cc(C)n5)[C@@H]4C(=O)N(C)c4cccc(Cl)c43)CC2C1 (stereo partly shown) [Example 14] = 2.05e+06
C=CC(=O)Nc1ccc(CN2C[C@H]3CC(=O)N(c4cc(C(F)(F)F)cc(C)n4)[C@@H]3C(=O)N(C)c3cccc(C)c32)cc1OC [Example 90] = 2.09e+06
C=C(CN(C)C)C(=O)NCC12CC(CN3C[C@H]4CC(=O)N(c5cc(C(F)(F)F)cc(C)n5)[C@@H]4C(=O)N(C)c4cccc(C)c43)(C1)C2 [Example 185] = 1.27e+06
Cc1cc(C(F)(F)F)cc(N2C(=O)C[C@@H]3CN(CCOCC4(F)CN(C(=O)/C=C/CN(C)C)C4)c4c(Cl)cccc4N(C)C(=O)[C@H]32)n1 [Example 304] = 1.87e+06

1: C=CC(=O)N1CCN2CCN(CCN3C[C@H]4CC(=O)N(c5cc(C(F)(F)F)cc(C)n5)[C@@H]4C(=O)N(C)c4cccc(F)c43)CC2C1 (single isomer, unassigned) [Example 23b]
2: C=C(CN(C)C)C(=O)N1CC(OCCCN2C[C@H]3CC(=O)N(c4cc(C(F)(F)F)cc(C)n4)[C@@H]3C(=O)Nc3cccc(C)c32)C1 [Example 191]
Ask: Endpoint returns the identifier whose Kinact/Kl is numerically larger, either 1 or 2 . Label of pick, please.
Reply: 2
(2: 1.4e+06 M⁻¹ s⁻¹, 1: 540000 M⁻¹ s⁻¹)

A: C=CC(=O)N1CC(N(C)CCCN2C[C@H]3CC(=O)N(c4cc(C(F)(F)F)cc(C)n4)[C@@H]3C(=O)N(C)c3cccc(F)c32)C1 [Example 71]
B: C=CC(=O)N1CCN(c2cccc(N3C[C@H]4CC(=O)N(c5cc(C(F)(F)F)cc(C)n5)[C@@H]4C(=O)N(C)c4cccc(F)c43)n2)CC1 [Example 55]
Ask: Pick one, A or B : lowest reported Kinact/Kl. Your answer should be the label of the entry you select.
Reply: B
(B: 15000 M⁻¹ s⁻¹, A: 420000 M⁻¹ s⁻¹)

a: C=CC(=O)N1CC(N2CCN(CCN3C[C@H]4CC(=O)N(c5cc(C(F)(F)F)cc(C)n5)[C@@H]4C(=O)N(C)c4cccc(F)c43)C[C@@H]2CF)C1 [Example 28]
b: C=CC(=O)N1CC(N(C)C[C@H](O)CN2C[C@H]3CC(=O)N(c4cc(C(F)(F)F)cc(C)n4)[C@@H]3C(=O)N(C)c3cccc(Cl)c32)C1 (racemic) [Example 68]
c: Cc1cc(C(F)(F)F)cc(N2C(=O)C[C@@H]3CN(Cc4ccc5c(c4)[C@H](CC#N)N(C(=O)/C=C/CN(C)C)C5)c4c(Cl)cccc4N(C)C(=O)[C@H]32)n1 (racemic) [Example 311b]
d: Cc1cc(C(F)(F)F)cc(N2C(=O)C[C@@H]3CN(Cc4ccc(NC(=O)C5=CCCNC5)cc4)c4c(C)cccc4N(C)C(=O)[C@H]32)n1 [Example 88]
e: C=CC(=O)N1Cc2cc(CN3C[C@H]4CC(=O)N(c5cc(C(F)(F)F)cc(C)n5)[C@@H]4C(=O)N(C)c4cccc(Cl)c43)cnc2C1CC#N (single isomer, unassigned) [Example 292b]
Ask: Sort the 5 compounds by Kinact/Kl; largest first, smallest last. Write the labels out in the order the request specifies.
Reply: d, e, c, b, a
